Measured values drawn from PubChem BioAssay (EPA / NIEHS) for this set.

Assay: ATG_PXRE_CIS: Attagene CIS-FACTORIAL HepG2 Assay for human Pregnane X Receptor Element (PXRE) (AID 2282957)
Details: HepG2 Attagene CIS-FACTORIAL PXRE reporter, mRNA; actives raise or lower the signal
Activity calls are given as the source filed them. How the source made its calls: active means hit-call score of the fitted dose curve at least 0.9, where 1 is the maximum; inactive means score below 0.9.
Respond using exactly one of the listed classes: active, inactive

These solved cases illustrate the format of a correct answer.
- COMPOUND: "CCC[N+](CCC)(CCC)CCC"
  ASSIGNED LABEL: "inactive"
- COMPOUND: "CC(c1ccc(O)cc1)c1ccc(O)cc1"
  ASSIGNED LABEL: "active"
- COMPOUND: "CCCCN(CCCC)C(=S)S"
  ASSIGNED LABEL: "active"

Turning to the following compound.
(Q) Recorded test outcome, item `CCCCCCCCCCCCc1cccc(S(=O)(=O)O)c1`
(A) active

* * *

Test: ATG_E_Box_CIS: Attagene CIS-FACTORIAL HepG2 Assay for human Enhancer Box (E-box) (AID 2282936)
Details: HepG2 E-box cis-reporter transcription, actives raise or lower the signal
Procedure: ATG_CIS is a cell-based, multiplexed-readout assay that uses HepG2, a human liver cell line, with measurements taken at 24 hours after chemical dosing in a 24-well plate.ATG_E_Box_CIS is one of 52 assay component(s) measured or calculated from the ATG_CIS assay. […] This assay endpoint, ATG_E_Box_CIS, was analyzed with bidirectional fitting relative to DMSO as the negative control and baseline of activity. […]
Calls of active or inactive are those of the source. The calls were made as follows: active = hit-call score of the fitted dose curve at least 0.9, where 1 is the maximum; inactive = score below 0.9.
Respond using exactly one of the listed classes: True (active), False (inactive)

These solved cases illustrate the format of a correct answer.
- COMPOUND: "C=C(C)C(=O)OCC(CC)CCCC (stereo unspecified)"
  ASSIGNED LABEL: "False"
- COMPOUND: "CCOP(=O)(OCC)OC(=CCl)c1ccc(Cl)cc1Cl"
  ASSIGNED LABEL: "False"
- COMPOUND: "O=CCCl"
  ASSIGNED LABEL: "True"
- COMPOUND: "CN(C)C(=S)S"
  ASSIGNED LABEL: "False"
- COMPOUND: "O=S(=O)(c1ccc(Cl)cc1)c1cc(Cl)c(Cl)cc1Cl"
  ASSIGNED LABEL: "False"
- COMPOUND: "Nc1ccc(-c2ccccc2)cc1"
  ASSIGNED LABEL: "False"
- COMPOUND: "CCCCOC(C)=O"
  ASSIGNED LABEL: "False"
- COMPOUND: "Cc1c([N+](=O)[O-])c(C)c([N+](=O)[O-])c(C(C)(C)C)c1[N+](=O)[O-]"
  ASSIGNED LABEL: "False"

(Q) Recorded test outcome, item `COc1ccc([N+](=O)[O-])cc1O`
(A) False

(Q) Recorded test outcome, item `CCOC(=O)Cc1ccccc1`
(A) False

(Q) Recorded test outcome, item `CNC(=O)CSP(=O)(OC)OC`
(A) False

(Q) Recorded test outcome, item `OCC(c1ccc(Cl)cc1)c1ccc(Cl)cc1`
(A) False

(Q) Recorded test outcome, item `CCN(CCO)CCO`
(A) False

(Q) Recorded test outcome, item `O=C(O)C1(c2ccc3c(c2)OC[C@H](Cc2ccc(-c4ccccc4)cc2)[C@H]3O)CCCC1`
(A) False

(Q) Recorded test outcome, item `CCCCCCCCCCCCc1cccc(S(=O)(=O)O)c1`
(A) False

(Q) Recorded test outcome, item `Oc1c(Cl)cc(Cl)cc1Cl`
(A) False

* * *

Assay: ATG_NRF2_ARE_CIS: Attagene CIS-FACTORIAL HepG2 Assay for human Nuclear Factor Erythroid 2 Related Factor 2 (NFR2) response to Antioxidant Response Elements (ARE) (AID 2282992)
Conditions: HepG2 Attagene ARE/NRF2 reporter, transcription factor activity; actives raise or lower the signal
Active and inactive are the calls of the source. Rule for the calls: active = hit-call score of the fitted dose curve at least 0.9, where 1 is the maximum; inactive = score below 0.9.
Respond using exactly one of the listed classes: active, inactive

- SMILES REPRESENTATION: "CC(c1ccc(O)cc1)c1ccc(O)cc1"
  ASSIGNED LABEL: "active"
- SMILES REPRESENTATION: "C1CCC(C2CCCCC2)CC1"
  ASSIGNED LABEL: "active"

Turning to the following compound.
(Q) Recorded test outcome, item `Cc1cc(C(F)(C(F)(F)F)C(F)(F)F)ccc1NC(=O)c1cccc(I)c1C(=O)NC(C)(C)CS(C)(=O)=O`
(A) inactive

* * *

Read-out: Secreted IgG (sIgG), gene 3500
Assay: BSK_BT_sIgG: BioMAP Diversity Plus: BT Assay for Secreted IgG (sIgG) Biomarker Activity (AID 2284226)
Conditions: primary human B cells with PBMC
The source made the active and inactive calls. Rule for the calls: active = hit-call score of the fitted dose curve at least 0.9, where 1 is the maximum; inactive = score below 0.9.
Respond using exactly one of the listed classes: 1 = active, -1 = inactive

These solved cases illustrate the format of a correct answer.
- SMILES REPRESENTATION: "c1ccc2sc(SNC3CCCCC3)nc2c1"
  ASSIGNED LABEL: 1
- SMILES REPRESENTATION: "CCCCN(CCCC)C(=S)[S-].CCCCN(CCCC)C(=S)[S-].[Ni+2]"
  ASSIGNED LABEL: 1

(Q) Recorded test outcome, item `Cc1cccc(OP(=O)(Oc2cccc(C)c2)Oc2cccc(C)c2)c1`
(A) -1

* * *

Assay: ATG_GRE_CIS: Attagene CIS-FACTORIAL HepG2 Assay for human Glucocorticoid Response Elements (GRE) (AID 2282947)
Settings: HepG2 GRE cis-reporter, Attagene multiplex mRNA; actives raise or lower the signal
Description: ATG_CIS is a cell-based, multiplexed-readout assay that uses HepG2, a human liver cell line, with measurements taken at 24 hours after chemical dosing in a 24-well plate.ATG_GRE_CIS is one of 52 assay component(s) measured or calculated from the ATG_CIS assay. […] This assay endpoint, ATG_GRE_CIS, was analyzed with bidirectional fitting relative to DMSO as the negative control and baseline of activity. […]
Activity calls are given as the source filed them. Rule for the calls: active = hit-call score of the fitted dose curve at least 0.9, where 1 is the maximum; inactive = score below 0.9.
Respond using exactly one of the listed classes: active, inactive

These solved cases illustrate the format of a correct answer.
- COMPOUND: "CN(C1CCCCC1)C1CCCCC1"
  ASSIGNED LABEL: "inactive"
- COMPOUND: "CCCCCCCCBr"
  ASSIGNED LABEL: "inactive"
- COMPOUND: "CCN(N=O)C(N)=O"
  ASSIGNED LABEL: "inactive"
- COMPOUND: "CC(C)(C#N)N=NC(C)(C)C#N"
  ASSIGNED LABEL: "inactive"
- COMPOUND: "CC1(C)[C@H](/C=C2\\CCSC2=O)[C@@H]1C(=O)OCc1coc(Cc2ccccc2)c1"
  ASSIGNED LABEL: "inactive"

(Q) Recorded test outcome, item `OC(c1ccc(Cl)cc1)(c1ccc(Cl)cc1)c1cccnc1`
(A) inactive

(Q) Recorded test outcome, item `CCOC(=O)Cc1ccccc1`
(A) inactive

(Q) Recorded test outcome, item `Clc1cccc(Cl)c1`
(A) inactive

(Q) Recorded test outcome, item `Cc1cc(Cl)ccc1OCCCC(=O)O`
(A) inactive

(Q) Recorded test outcome, item `CC(=Cc1ccccc1)[N+](=O)[O-]`
(A) inactive

(Q) Recorded test outcome, item CC(C)[C@H](C(=O)OC(C#N)c1cccc(Oc2ccccc2)c1)c1ccc(OC(F)F)cc1 (some centres not stated)
(A) inactive

(Q) Recorded test outcome, item `c1ccc2c(c1)Oc1ccccc1O2`
(A) inactive

(Q) Recorded test outcome, item `C[C@@H]1O[C@@H](O[C@H]2C[C@@H](O)[C@]3(CO)[C@H]4[C@H](O)C[C@]5(C)[C@@H](C6=CC(=O)OC6)CC[C@]5(O)[C@@H]4CC[C@]3(O)C2)[C@H](O)[C@H](O)[C@H]1O`
(A) active

(Q) Recorded test outcome, item `O=[N+]([O-])c1cc([As](=O)(O)O)ccc1O`
(A) inactive

(Q) Recorded test outcome, item `C#C[C@]1(O)CC[C@H]2[C@@H]3CCC4=CC(=O)CC[C@]4(C)[C@H]3CC[C@@]21C`
(A) inactive

(Q) Recorded test outcome, item `OCC(c1ccc(Cl)cc1)c1ccc(Cl)cc1`
(A) inactive

(Q) Recorded test outcome, item C=CC(F)(C(F)(F)F)C(F)(F)C(F)(F)F (configuration not stated)
(A) inactive

* * *

Assay: ATG_TCF_b_cat_CIS: Attagene CIS-FACTORIAL HepG2 Assay for human T-Cell-Factor with beta-catenin (TCF/b-cat) (AID 2282965)
Conditions: HepG2 TCF/beta-catenin cis-reporter transcription, actives raise or lower the signal
Calls of active or inactive are those of the source. The calls were made as follows: active = hit-call score of the fitted dose curve at least 0.9, where 1 is the maximum; inactive = score below 0.9.
QUANTITY KIND: AC50

- MOLECULE: "CC(C)C(C)(N)C#N (configuration not stated)"
  AC50: "inactive"
- MOLECULE: "CC(C)CC(C)(c1ccc(O)cc1)c1ccc(O)cc1"
  AC50: "11.1 µM (active)"
- MOLECULE: "O=S(=O)(F)C(F)(F)C(F)(F)C(F)(F)C(F)(F)F"
  AC50: "inactive"
- MOLECULE: "C=CC(Cl)CCl (configuration not stated)"
  AC50: "inactive"
- MOLECULE: "C[C@@H]1O[C@@H](O[C@H]2C[C@@H](O)[C@]3(CO)[C@H]4[C@H](O)C[C@]5(C)[C@@H](C6=CC(=O)OC6)CC[C@]5(O)[C@@H]4CC[C@]3(O)C2)[C@H](O)[C@H](O)[C@H]1O"
  AC50: "2.31 µM (active)"

List AC50 for every entry below, keeping the order given.
1. Nc1nc(N)nc(Cl)n1
2. N#Cc1cccnc1

(A)
inactive
inactive
